Values compiled from patent US20220257569A1.

target: cannabinoid CB1 receptor (Homo sapiens, UniProt P21554); construct: host or cells: HEK293 CB1 β-arrestin cells; experiment: PathHunter β-Arrestin assay (allosteric inhibition of agonist Emax); type: cell-based; settings: FIG. 1; agonist CP55,940; calculated by GraphPad Prism; read-out: IC50 for reduction of Emax of CP55,940
Sequence (P21554 whole entry): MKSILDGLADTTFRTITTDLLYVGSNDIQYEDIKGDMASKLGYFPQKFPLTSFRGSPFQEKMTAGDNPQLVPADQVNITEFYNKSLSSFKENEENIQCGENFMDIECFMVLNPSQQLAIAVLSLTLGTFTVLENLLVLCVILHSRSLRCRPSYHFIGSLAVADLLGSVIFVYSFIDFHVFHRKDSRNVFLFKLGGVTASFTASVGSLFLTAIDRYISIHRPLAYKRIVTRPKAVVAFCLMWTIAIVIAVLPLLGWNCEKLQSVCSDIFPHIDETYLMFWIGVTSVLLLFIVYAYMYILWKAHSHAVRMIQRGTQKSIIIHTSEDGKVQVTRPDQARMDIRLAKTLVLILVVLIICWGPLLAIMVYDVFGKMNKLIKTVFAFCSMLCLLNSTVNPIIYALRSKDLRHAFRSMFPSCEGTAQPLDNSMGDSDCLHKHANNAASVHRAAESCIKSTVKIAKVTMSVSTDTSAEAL
Test Readout: IC50 (nM)

Query Smiles	Unit	Reading
CCc1c(-c2nnc(Nc3ccccc3)o2)[nH]c2ccc(Cl)cc12	nM	1

---

Parameter melting point: see the listing below.

Query Smiles	melting point
CCc1c(-c2nnc(Nc3ccccc3)o2)[nH]c2ccc(Cl)cc12	252 to 254 °C
CCc1c(-c2nnc(Nc3ccc(F)cc3)o2)[nH]c2ccc(Cl)cc12	248 to 250 °C
CCc1c(-c2nnc(SCc3ccc(C)cc3)o2)[nH]c2ccc(Cl)cc12	195 to 197 °C
Cc1c(-c2nnc(SCc3ccccc3)o2)[nH]c2ccc(Cl)cc12	215 to 216 °C

---

# maps each entry to its half-life at 3 μM
assay: Rat liver microsomal stability assay; type: in vitro ADME; settings: both sexes, pH 7.4; pooled rat liver microsomes 0.5 mg/mL, 3 μM compound, NADPH, 37° C., 45 min; read-out: Microsomal stability T1/2 Rat

Molecule	Unit	half-life at 3 μM
CCc1c(-c2nnc(SCc3ccccc3)o2)[nH]c2ccc(Cl)cc12 [ABM328]	min	40
O=S(=O)(NCc1ccc(-c2ccc(F)nc2F)cc1)c1cc2cc(Cl)ccc2[nH]1 [Reference compound 3 (ABD1085), reference compound]	min	48
CCc1c(-c2nnc(Nc3ccc(F)cc3)o2)[nH]c2ccc(Br)cc12 [ABM338]	min	292
CCc1c(-c2nnc(SCc3ccc(F)cc3)o2)[nH]c2ccc(Br)cc12 [ABM340]	min	23
O=S(=O)(NCc1ccc(-c2ccc(F)cc2F)cn1)c1cc2cc(Cl)ccc2[nH]1 [Reference compound 2 (ABD1075), reference compound]	min	32
CCc1c(C(=O)NCCc2ccc(N3CCCCC3)cc2)[nH]c2ccc(Cl)cc12 [Reference compound 1 (Org27569)]	min	28

---

molecular target: cannabinoid CB1 receptor (Homo sapiens); construct: host or cells: HEK293 CB1 β-arrestin cells; experiment: PathHunter β-Arrestin assay (allosteric inhibition of agonist Emax); assay type: cell-based; details: HEK293 CB1 β-arrestin cells; concentration of modulator giving 50% reduction in agonist Emax; 60 min pre-incubation
pIC50: −log10 of the molar value.

Compound	Assayed System	pIC50
Clc1ccc2[nH]c(-c3nnc(Nc4ccccc4)o3)cc2c1 [ABM310]	cannabinoid CB1 receptor (Homo sapiens)	8.52
COc1ccc(CSc2nnc(-c3[nH]c4ccc(Cl)cc4c3C)o2)cc1 [ABM301]	cannabinoid CB1 receptor (Homo sapiens)	7.17
CCc1c(-c2nnc(NCc3ccccc3)o2)[nH]c2ccc(Cl)cc12 [ABM313]	cannabinoid CB1 receptor (Homo sapiens)	7.92
Cc1c(-c2nnc(Nc3ccc(F)cc3)o2)[nH]c2ccc(Cl)cc12 [ABM337]	cannabinoid CB1 receptor (Homo sapiens)	9.00
Clc1ccc2[nH]c(-c3nnc(NCc4ccccc4)o3)cc2c1 [ABM314]	cannabinoid CB1 receptor (Homo sapiens)	6.98
Cc1c(-c2nnc(SCc3ccccc3)o2)[nH]c2ccc(Cl)cc12 [ABM321]	cannabinoid CB1 receptor (Homo sapiens)	7.03
Clc1ccc2[nH]c(-c3nnc(NCCc4ccccc4)o3)cc2c1 [ABM318]	cannabinoid CB1 receptor (Homo sapiens)	8.52
CCc1c(-c2nnc(SCc3ccc(F)cc3)o2)[nH]c2ccc(Br)cc12 [ABM340]	cannabinoid CB1 receptor (Homo sapiens)	7.72
Cc1c(-c2nnc(NCc3ccccc3)o2)[nH]c2ccc(Cl)cc12 [ABM315]	cannabinoid CB1 receptor (Homo sapiens)	8.15
CCc1c(-c2nnc(SCCc3ccccc3)o2)[nH]c2ccc(Cl)cc12 [ABM329]	cannabinoid CB1 receptor (Homo sapiens)	6.03
Cc1c(-c2nnc(SCCc3ccccc3)o2)[nH]c2ccc(Cl)cc12 [ABM322]	cannabinoid CB1 receptor (Homo sapiens)	6.38
CCc1c(-c2nnc(NCCc3ccccc3)o2)[nH]c2ccc(Br)cc12 [ABM320]	cannabinoid CB1 receptor (Homo sapiens)	9.00
CCc1c(-c2nnc(NCc3ccccc3)o2)[nH]c2ccc(Br)cc12 [ABM316]	cannabinoid CB1 receptor (Homo sapiens)	7.92
Fc1ccc(Nc2nnc(-c3cc4cc(Cl)ccc4[nH]3)o2)cc1 [ABM336]	cannabinoid CB1 receptor (Homo sapiens)	8.30
CCc1c(-c2nnc(Nc3ccc(F)cc3)o2)[nH]c2ccc(Br)cc12 [ABM338]	cannabinoid CB1 receptor (Homo sapiens)	9.00
